assay_method_text: Determination of pKa of formulated lipids (TNS fluorescence assay in lipid nanoparticles)
Type: physicochemical
condition_info: lipid formulated in LNP (lipid/DSPC/cholesterol/PEG-lipid); pH giving half-maximal TNS fluorescence
attribute_measured: pKa

Which measured pKa value corresponds to CCCCCCCCC(CCCCCC)COC(=O)CCCCCC(CCCCCC(=O)OCC(CCCCCC)CCCCCCCC)NCCCCCC(=O)OCC(CC)CCCC (stereo not shown) ?
6.11

Which measured pKa value corresponds to CCCCCCCCC(CCCCCC)COC(=O)CCCCCNCCN(CCCCCC(=O)OCC(CCCCCC)CCCCCCCC)CCCCCC(=O)OCC(CCCCCC)CCCCCCCC (stereo not shown) ?
6.5

Which measured pKa value corresponds to CCCCCCCCC(CCCCCC)COC(=O)CCCCCC(CCCCCC(=O)OCC(CCCCCC)CCCCCCCC)NCCCCCC(=O)OCC(CCCC)CCCCCC (stereo not shown) ?
5.76

Which measured pKa value corresponds to CCCCCCCCC(CCCCCC)COC(=O)CCCCCN(CCCCCC(=O)OCC(CCCCCC)CCCCCCCC)CCNCCCCCC(=O)OCC(CCCC)CCCCCC (stereo not shown) ?
6.39
